Would you mind telling me the reported log10 of IC50 of each entry?
Assayed Target: protein kinase D3 (PKD3) (Homo sapiens)
Construct: This assay is performed with full length wild-type enzyme that is purchased from Invitrogen; purchased Invitrogen
Sequence (O94806 1-890): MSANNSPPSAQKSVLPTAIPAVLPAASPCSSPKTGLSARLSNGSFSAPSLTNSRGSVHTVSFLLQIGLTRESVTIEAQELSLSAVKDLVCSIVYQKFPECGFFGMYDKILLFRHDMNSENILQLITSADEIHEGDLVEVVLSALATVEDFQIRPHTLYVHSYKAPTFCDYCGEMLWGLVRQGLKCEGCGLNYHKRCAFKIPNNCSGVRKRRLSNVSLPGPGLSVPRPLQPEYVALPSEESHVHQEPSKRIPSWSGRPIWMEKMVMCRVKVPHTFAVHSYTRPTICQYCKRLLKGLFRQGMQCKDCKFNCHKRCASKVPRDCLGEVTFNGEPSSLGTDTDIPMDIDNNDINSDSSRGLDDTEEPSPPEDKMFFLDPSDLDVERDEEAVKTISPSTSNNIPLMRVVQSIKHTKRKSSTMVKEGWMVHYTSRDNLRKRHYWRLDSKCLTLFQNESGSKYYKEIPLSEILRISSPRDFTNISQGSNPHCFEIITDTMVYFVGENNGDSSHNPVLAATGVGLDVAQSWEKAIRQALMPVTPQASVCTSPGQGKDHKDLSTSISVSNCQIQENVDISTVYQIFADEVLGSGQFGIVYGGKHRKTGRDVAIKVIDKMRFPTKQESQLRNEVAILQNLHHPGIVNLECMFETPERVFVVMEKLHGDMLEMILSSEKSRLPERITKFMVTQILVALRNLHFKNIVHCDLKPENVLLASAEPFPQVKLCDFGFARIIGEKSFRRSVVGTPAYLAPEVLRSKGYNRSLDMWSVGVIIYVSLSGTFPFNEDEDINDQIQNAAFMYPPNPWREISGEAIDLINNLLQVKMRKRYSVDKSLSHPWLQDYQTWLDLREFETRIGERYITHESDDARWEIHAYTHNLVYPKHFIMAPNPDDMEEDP
Protocol Text: PKD3 TR-FRET (LANCE) kinase assay
Assay type: biochemical
Recorded Conditions: full length wild-type enzyme, 20 μM ATP; read-out: Inhibitory Activity PKD3
Note the log scale: values are log10 of IC50 expressed in nM.

# input State, in one line, measured log10 of IC50 of `CNc1cc(-c2cc3cnccc3c(NCCCO)n2)ccn1`
# output 2.36

# input Supply reported log10 of IC50 belonging to this compound: c1cc2c(NC3CCNC3)nc(-c3ccnc(NC4CCCCC4)c3)cc2cn1 (stereo not shown)
# output 0.00

# input Please report the measured log10 of IC50 for `COCCNc1cc(-c2cc3cnccc3c(N3CCNCC3)n2)ccn1`
# output 1.00

# input Find the measured log10 of IC50 of `O=C(NCCO)C1CCN(c2nc(-c3ccnc(NC4CCOCC4)c3)cc3cnccc23)CC1` and report it.
# output 0.30

# input Using the record for c1cc2c(NC3CCCNC3)nc(-c3ccnc(NC4CCCCC4)c3)cc2cn1 (stereo not shown) , state its measured log10 of IC50.
# output 1.28

# input Provide one value: measured log10 of IC50 of `COc1cccc(Nc2cc(-c3cc4cnccc4c(NCCO)n3)ccn2)c1`
# output 1.79

# input Respond only with log10 of IC50 recorded for `CC(C)Nc1cc(-c2cc3cnccc3c(NCCO)n2)ccn1`
# output 2.08

# input For `CN(C)CC1CCN(c2nc(-c3ccnc(NC4CCCCC4)c3)cc3cnccc23)CC1` , write its log10 of IC50.
# output 1.32

# input Quick one: give measured log10 of IC50 for `CCNC(=O)N1CCN(c2nc(-c3ccnc(Nc4ccn(C)n4)c3)cc3cnccc23)CC1`
# output 1.48

# input Please list log10 of IC50 recorded for the compound `Cn1ccc(Nc2cc(-c3cc4cnccc4c(N4CCC5(CCNC5=O)CC4)n3)ccn2)n1`
# output 0.95
